# experiment_notes: qHTS for Inhibitors of human tyrosyl-DNA phosphodiesterase 1 (TDP1): qHTS in cells in presence of CPT; note: nearly all actives have a fitted effect of over 55% in size
# run_parameters: chicken DT40 Tdp1-/-;hTDP1 cells + 20 nM CPT, ATP luminescence, 48 h; series mostly up to 46.2 µM
The whole screen tested about 420,000 compounds, of which about 50,000 (12%) were called active. Another 26% or so got no clear call; they are omitted. Calls come from the whole dose curve; as a rule, active = well fitted inhibition curve with a large enough effect; inconclusive = small, poorly fitted or top-dose-only effect; inactive = flat fitted curve, though single readings scatter. The full list was thinned out, with actives kept by preference.
Assign a class; possible classes are active, inactive

Field: example entries. Status: answers known.
* COc1cccc(OC)c1C(=O)NC(=S)N1C[C@H]2C[C@H](C1)c1cccc(=O)n1C2 | inactive
* COc1ccc2[nH]c3c(c2c1)CCN[C@H]3C | inactive
* CN1C2CC3CC1C(O3)C2O (stereo not given) | inactive

### Prompt Which outcome was entered for the compound "COc1ccc(N=Cc2c(O)n(C)c(=O)[nH]c2=O)cc1" in this test?
### Response inactive

### Prompt Which outcome was entered for the compound COC(=O)C(O)(c1ccc(NC(=O)c2ccco2)c(OC)c1)C(F)(F)F (stereo not given) in this test?
### Response inactive

### Prompt Which outcome was entered for the compound OC(CNC1CCCCC1)c1ccccc1 (stereo not given) in this test?
### Response inactive

### Prompt Which outcome was entered for the compound "O=C(/C=C/c1cccs1)c1cc(Cl)ccc1OC(=O)N1CCOCC1" in this test?
### Response active

### Prompt Which outcome was entered for the compound "CN(C)S(=O)(=O)c1cc(C(=O)N2CCC(C(=O)O)(c3ccccc3)CC2)ccc1Cl" in this test?
### Response inactive

### Prompt Which outcome was entered for the compound "COc1cc([C@@H]2c3cc4c(cc3[C@H](OC(C)=O)[C@H]3COC(=O)[C@H]23)OCO4)cc(OC)c1OC" in this test?
### Response active

### Prompt Which outcome was entered for the compound CCOC(=O)C1CN(C)CCC1=O (stereo not given) in this test?
### Response inactive

### Prompt Which outcome was entered for the compound "O=C1C2CCN(CC2)C1(CO)CO" in this test?
### Response active

### Prompt Which outcome was entered for the compound Cc1cccc(NC(=O)OC2CN3CCC2CC3)c1 (stereo not given) in this test?
### Response inactive

### Prompt Which outcome was entered for the compound "CC(C)c1ccc(-n2c(O)c(/C=N/N3CCOCC3)c(=O)[nH]c2=S)cc1" in this test?
### Response inactive

### Prompt Which outcome was entered for the compound "Cc1cc(=O)oc2c(C)c(OCC(=O)N3CCN(Cc4ccc5c(c4)OCO5)CC3)ccc12" in this test?
### Response inactive

### Prompt Which outcome was entered for the compound "Clc1cccc(Cl)c1Cl" in this test?
### Response inactive

### Prompt Which outcome was entered for the compound "CCCCC(=O)N/N=C/c1c(O)n(CC)c(=S)n(CC)c1=O" in this test?
### Response active

### Prompt Which outcome was entered for the compound "Nc1ccc([N+](=O)[O-])cc1" in this test?
### Response inactive

### Prompt Which outcome was entered for the compound "CC(=O)Cc1ccc(OC(C)C)cc1" in this test?
### Response inactive

### Prompt Which outcome was entered for the compound "CC(=O)c1c(O)c(C)c(O)c(Cc2c(O)c3c(c(C(=O)/C=C/c4ccccc4)c2O)OC(C)(C)C=C3)c1O" in this test?
### Response active

### Prompt Which outcome was entered for the compound "CN(C)C(=O)Oc1ccc(OCc2cccc[n+]2C)cc1" in this test?
### Response inactive

### Prompt Which outcome was entered for the compound "Cc1c(C(=O)O)cccc1-n1c(C)cc(/C=C2\C(=O)NC(=O)N(c3ccc4c(c3)OCO4)C2=O)c1C" in this test?
### Response inactive
